test system: vasopressor response of angiotensin II; test: AII Challenge: antagonism of angiotensin II vasopressor response; assay type: in vivo; details: Rattus norvegicus, iv, 1 h, 1 mg/kg i.v.; AII 0.1 mcg/kg IV; 60 min post dose
Where a name gives a salt, the structure may show the parent alone.
QUANTITY NAME: inhibition in vivo at 1 mg/kg (%)
Answer format: numeric, % implied, no suffix.

COMPOUND	VALUE OBSERVED
CCCCc1nc2ccc([C@@]3(C)C[C@@H]4CCC(C)(C)N4O3)cc2c(=O)n1Cc1ccc(-c2ccccc2-c2nnn[nH]2)cc1 (relative stereo)	94
CCCCc1nc2ccc(C3(CO)CC4CCCN4O3)cc2c(=O)n1Cc1ccc(-c2ccccc2-c2nnn[nH]2)cc1 (stereo not shown)	80
CCCCc1nc2ccc([C@]3(CC)C[C@@H]4CCCN4O3)cc2c(=O)n1Cc1ccc(-c2ccccc2-c2nnn[nH]2)cc1 (relative stereo)	71
CCCCc1nc2ccc([C@@]3(C)C[C@@H]4CCCN4O3)cc2c(=O)n1Cc1ccc(-c2ccccc2-c2nnn[nH]2)cc1 (relative stereo) [Example 73, sodium salt]	65
CCCCc1nc2ccc([C@@]3(CC)C[C@@H]4CCCN4O3)cc2c(=O)n1Cc1ccc(-c2ccccc2-c2nnn[nH]2)cc1 (relative stereo)	60
CCCCc1nc2ccc(C3(C(=O)OC)CC4CCCN4O3)cc2c(=O)n1Cc1ccc(-c2ccccc2-c2nnn[nH]2)cc1 (mixture of isomers)	55

For the next question, use this compound.
Reported inhibition in vivo at 1 mg/kg for CCCCc1nc2ccc([C@@]3(c4ccccc4)C[C@@H]4CCCN4O3)cc2c(=O)n1Cc1ccc(-c2ccccc2-c2nnn[nH]2)cc1 (relative stereo) : what is it?
63
